Target sequence: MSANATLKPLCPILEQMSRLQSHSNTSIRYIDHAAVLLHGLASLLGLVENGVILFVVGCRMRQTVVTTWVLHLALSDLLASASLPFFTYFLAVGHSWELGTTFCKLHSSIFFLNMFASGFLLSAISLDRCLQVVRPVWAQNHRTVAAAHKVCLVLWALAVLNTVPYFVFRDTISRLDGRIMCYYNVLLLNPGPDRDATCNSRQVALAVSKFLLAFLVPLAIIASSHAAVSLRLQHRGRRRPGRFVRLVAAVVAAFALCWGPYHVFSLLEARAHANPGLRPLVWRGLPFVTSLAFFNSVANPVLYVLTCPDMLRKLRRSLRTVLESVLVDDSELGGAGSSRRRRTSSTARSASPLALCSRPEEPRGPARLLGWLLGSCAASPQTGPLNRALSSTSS
measurement label: pKi
The read-out pKi is expressed as -log10 of concentration in moles per litre.

Q. Give reported pKi value for O=C(O)Cn1cc(Cc2nc3c(F)c(F)cc(F)c3s2)c2ccccc21 [Compound 20, reference compound]
A. 6.05

Q. Give reported pKi value for Cc1c(C(C)c2ccc(S(C)(=O)=O)cc2)c2cc(F)ccc2n1CC(=O)O (centres unmarked)
A. 8.30
